assay: qHTS for Suppressors of FUS Proteinopathy: Primary screen using FUS-linked yeast assay; further: nearly all actives have a fitted effect of over 55% in size; conditions: S. cerevisiae FUS-expressing, OD600, 24 h; growth rescue; series mostly up to 76.6 µM
The campaign covered roughly 390,000 compounds. About 930 (0.24%) were called active. Not shown: some 5% with an inconclusive outcome. The call rests on the fitted dose curve; in most records, active means well fitted activation curve with a large enough effect; inconclusive means small, poorly fitted or top-dose-only effect; inactive means no such curve, though single readings can be large or run the other way. Shown is part of a subset that was picked to be rich in actives.
Would you mind answering with one of these outcomes? active, inactive

CC(C)NC(=O)Nc1cccc2c1O[C@@H](CN(C)S(=O)(=O)c1ccc(F)cc1)[C@@H](C)CN([C@H](C)CO)C2=O : inactive
CCc1cccc(NC(=O)c2cc(-c3ccccc3)n[nH]2)c1 : inactive
Cc1nnc(N2CCC(C(=O)Nc3ccc(F)cc3)CC2)c2nn(-c3ccc(Cl)cc3)c(C)c12 : inactive

GET /call?item= COc1ccc(CCNC(=O)c2nn(C)c3c2CSc2ccccc2-3)cc1OC returns the recorded outcome of this test.
inactive

GET /call?item= Cc1ccc(NC(=O)C(c2ccccc2)N2CCN(C(=O)c3ccco3)CC2)cc1 (stereo not drawn) returns the recorded outcome of this test.
inactive

GET /call?item= CCN(c1ccc2c(c1)OCO2)S(=O)(=O)c1cc(Br)cc2c1N(C(=O)C1CC1)CC2 returns the recorded outcome of this test.
active

GET /call?item= CCCn1c(C)cc(/C=C(\C#N)C(=O)OCC(=O)N(C)c2c(N)n(Cc3ccccc3)c(=O)[nH]c2=O)c1C returns the recorded outcome of this test.
active

GET /call?item= COc1cc(NC(=O)C2=CC(c3ccc(C)cc3)=NS(=O)(=O)N2C)cc(OC)c1OC returns the recorded outcome of this test.
inactive

GET /call?item= CCc1ccc(NC(=O)CCCc2nnc3n(CCCOC)c(=O)c4sccc4n23)cc1 returns the recorded outcome of this test.
inactive

GET /call?item= CCOc1ccc(C(=O)Nc2ccc3nc4c(c(Nc5ccccc5OC)c3c2)CCCC4)cc1 returns the recorded outcome of this test.
inactive

GET /call?item= CCOC(=O)N1CCN(S(=O)(=O)c2cc(Br)cc3c2N(C(=O)C2CC2)CC3)CC1 returns the recorded outcome of this test.
inactive

---

experiment: qHTS for Suppressors of FUS Proteinopathy: Primary screen using FUS-linked yeast assay; further: nearly all actives have a fitted effect of over 55% in size; conditions: S. cerevisiae FUS-expressing, OD600, 24 h; growth rescue; series mostly up to 76.6 µM
The campaign covered roughly 390,000 compounds. About 930 (0.24%) were called active. Not shown: some 5% with an inconclusive outcome. The sample holds actives, similar compounds and a random draw of the others, so the mix is not that of the screen.
readout_type: outcome

Some compounds with recorded outcome:
Cc1c(Cl)cccc1NC(=O)C(=O)NCCc1csc2nc(-c3ccccc3F)nn12 : inactive
CCOC(=O)N1CCC(NC(=O)c2cnn(-c3cccc(C)c3)c2C2CCN(C(=O)OC(C)(C)C)CC2)CC1 : inactive
CCN(CCCNC(=O)c1cc(Nc2ccc(OC)cc2)nc2ccccc12)c1cccc(C)c1 : inactive
COc1ccc(CCNC(=O)c2ccc3c(c2)sc2nc(-c4ccc(C)cc4)cn23)cc1OC : inactive

API: the following record is the query input.
Measured outcome of O=C(CSc1nccn1Cc1ccc(Cl)cc1)NCc1ccccc1 : inactive

---

experiment: qHTS for Suppressors of FUS Proteinopathy: Primary screen using FUS-linked yeast assay; further: nearly all actives have a fitted effect of over 55% in size; details: S. cerevisiae FUS-expressing, OD600, 24 h; growth rescue; series mostly up to 76.6 µM
About 930 (0.24%) of roughly 390,000 compounds were called active. Roughly 5% stayed inconclusive and do not appear here. Calls follow the shape of the dose curve; as a rule, active = well fitted activation curve with a large enough effect; inconclusive = small, poorly fitted or top-dose-only effect; inactive = no such curve, though single readings can be large or run the other way. Shown is part of a subset that was picked to be rich in actives.
Would you mind answering with one of these outcomes? active, inactive

CCN(CC)S(=O)(=O)c1ccc2c(c1)N(CC(=O)NCC(C)c1ccccc1)C(=O)CO2 (stereo not given) : inactive
CC(=O)c1cccc(Nc2ccc3cc(S(=O)(=O)N4CCC(C)CC4)ccc3n2)c1 : inactive
COc1ccccc1C1/C(=C(/O)c2ccc(OC(C)C)cc2)C(=O)C(=O)N1c1cc(C)on1 (stereo not given) : active
Cc1ccc2nc(N3C(=O)C(O)=C(C(=O)c4ccco4)C3c3cccc(O)c3)sc2c1 (stereo not given) : active
COc1cccc(CNC(=O)c2ccc3c(c2)sc2nc(-c4cccc(OC)c4)cn23)c1 : inactive

GET /call?item= CC(C)(C)OC(=O)C[C@@H]1C/C=C\C[C@@H](CC(=O)N(CCO)Cc2ccccc2)C(=O)N[C@H](Cc2ccccc2)COC1=O returns the recorded outcome of this test.
inactive

GET /call?item= O=C(CNC(=O)Cc1ccccc1)NCC(=O)OCC(=O)c1ccccc1Cl returns the recorded outcome of this test.
inactive

GET /call?item= CC1CCc2sc(C(=O)N/N=C/C3CCCCC3)cc2C1 (stereo not given) returns the recorded outcome of this test.
inactive

GET /call?item= Cc1c(C(=O)N2CCCC2)oc2c1-c1nn(CC(=O)NCc3ccc(OC(C)C)cc3)cc1CC2 returns the recorded outcome of this test.
inactive

GET /call?item= CCN(CC)c1nn2c(=O)c(C(=O)NCCc3ccccc3)cnc2s1 returns the recorded outcome of this test.
inactive
